These measurements were taken from the supplement of paper PMC13380429.

- Tested on: U2OS
- test_summary: cell viability relative to DMSO; higher = less toxic
- conditions: 72 h; 10000 nM
Can you tell me cell viability for the items I'm about to list?
# unit: % | format: bare number

Q. Please give measured cell viability of the following entry: N=C(N)NCCSSCCNC(=N)N [guanidinoethyldisulfide-bicarbonate]
A. 102

Q. Please give measured cell viability of the following entry: O=C1[O][SbH]23[O]C(=O)C([O]2)C2[O][SbH]4([O]C(=O)C([O]4)C1[O]3)[O]C2=O [antimonyl]
A. 84.8

Q. Please give measured cell viability of the following entry: O=C(O)CC1CC(c2ccccc2)=NO1 (configuration not stated) [VGX-1027]
A. 103

Q. Please give measured cell viability of the following entry: CCN1CCN(c2ccc(Nc3cc(N(C)C(=O)Nc4c(Cl)c(OC)cc(OC)c4Cl)ncn3)cc2)CC1 [NVP-BGJ398]
A. 90.5

Q. Please give measured cell viability of the following entry: CC1(C)O[C@@H]2[C@@H](CO[C@@]3(COS(N)(=O)=O)OC(C)(C)O[C@@H]23)O1 [topiramate]
A. 108

Q. Please give measured cell viability of the following entry: CN(C)CCCOc1nn(Cc2ccccc2)c2ccccc12 [benzydamine]
A. 91.2

Q. Please give measured cell viability of the following entry: C[C@]12CCC(=O)C=C1CC[C@@H]1[C@@H]2CC[C@@]2(C)[C@H]1CC[C@]2(C)O [17-alpha-Methyltestosterone]
A. 97.1

Q. Please give measured cell viability of the following entry: O=S(=O)(c1cccc2c(O)nccc12)N1CCCNCC1 [hydroxyfasudil]
A. 102

Q. Please give measured cell viability of the following entry: Cc1ccc(CNc2ncnc3ccc(-c4ccc(CO)o4)cc23)o1 [ML167]
A. 99.9

Q. Please give measured cell viability of the following entry: CC(C)(F)C[C@H](N[C@@H](c1ccc(-c2ccc(S(C)(=O)=O)cc2)cc1)C(F)(F)F)C(=O)NC1(C#N)CC1 [odanacatib]
A. 94.8

Q. Please give measured cell viability of the following entry: COc1ccccc1N1CCN(CCN2C(=O)CC3(CCCC3)CC2=O)CC1 [BMY-7378]
A. 102

Q. Please give measured cell viability of the following entry: Cn1c(=O)c2c(ncn2CC(O)CO)n(C)c1=O (configuration not stated) [dyphylline]
A. 110
